Values compiled from paper PMC9817970.

Each entry below carries its measured IC50, system: c-KIT (Homo sapiens, UniProt P10721).
Sequence (P10721 26-976): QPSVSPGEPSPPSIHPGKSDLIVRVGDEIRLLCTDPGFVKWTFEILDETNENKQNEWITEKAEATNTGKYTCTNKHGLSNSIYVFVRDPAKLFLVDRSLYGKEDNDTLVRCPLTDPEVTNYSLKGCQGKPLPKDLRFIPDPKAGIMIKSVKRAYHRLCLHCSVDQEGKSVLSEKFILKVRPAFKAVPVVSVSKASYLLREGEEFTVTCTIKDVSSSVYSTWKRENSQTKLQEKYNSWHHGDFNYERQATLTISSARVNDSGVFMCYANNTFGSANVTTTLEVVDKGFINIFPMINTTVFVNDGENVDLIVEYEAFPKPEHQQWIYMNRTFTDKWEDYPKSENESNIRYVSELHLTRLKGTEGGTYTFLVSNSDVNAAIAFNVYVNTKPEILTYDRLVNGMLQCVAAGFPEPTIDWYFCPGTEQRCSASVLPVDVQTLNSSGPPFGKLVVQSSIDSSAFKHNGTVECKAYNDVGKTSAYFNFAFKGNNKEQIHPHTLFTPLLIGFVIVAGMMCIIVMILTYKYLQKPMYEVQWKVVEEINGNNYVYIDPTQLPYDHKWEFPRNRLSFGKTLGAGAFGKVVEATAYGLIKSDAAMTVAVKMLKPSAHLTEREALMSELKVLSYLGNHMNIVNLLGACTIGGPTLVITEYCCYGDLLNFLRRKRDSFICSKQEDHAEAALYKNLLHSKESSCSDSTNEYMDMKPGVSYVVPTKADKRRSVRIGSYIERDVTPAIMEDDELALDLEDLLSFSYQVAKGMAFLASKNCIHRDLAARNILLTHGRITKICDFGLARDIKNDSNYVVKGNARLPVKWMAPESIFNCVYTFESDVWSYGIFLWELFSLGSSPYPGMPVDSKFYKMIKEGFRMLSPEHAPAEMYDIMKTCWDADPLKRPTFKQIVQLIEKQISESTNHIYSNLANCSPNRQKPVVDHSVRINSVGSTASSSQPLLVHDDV
parameter-measured: IC50 (nM)

As a guide, the following entries are already answered.
[[record]]
given_smiles = "Cc1ccc(NC(=O)c2ccc(N3CCN(C)CC3)c(C(F)(F)F)c2)cc1-c1cnc2sc(N)nc2c1"
obs_value = 2170

[[record]]
given_smiles = "Cc1ccc(NC(=O)c2ccc(CN3CCN(C)CC3)c(C(F)(F)F)c2)cc1-c1cnc2sc(NC(=O)C3CCCCC3)nc2c1"
obs_value = 1510

[[record]]
given_smiles = "Cc1ccc(NC(=O)c2ccc(N(C)C)c(C(F)(F)F)c2)cc1-c1cnc2sc(N)nc2c1"
obs_value = 4310

[[record]]
given_smiles = "Cc1ccc(NC(=O)c2ccc(N3CCOCC3)c(C(F)(F)F)c2)cc1-c1cnc2sc(N)nc2c1"
obs_value = 1760


[a] CC(=O)Nc1nc2cc(-c3cc(NC(=O)c4ccc(N5CCOCC5)c(C(F)(F)F)c4)ccc3C)cnc2s1
[b] Cc1ccc(NC(=O)c2cc(N3CCN(C)CC3)cc(C(F)(F)F)c2)cc1-c1cnc2sc(N)nc2c1
Req: Given a and given b , which shows the smaller recorded IC50? Output the label that corresponds to your choice.
Resp: a

[I] Cc1ccc(NC(=O)c2ccc(CN3CCS(=O)(=O)CC3)c(C(F)(F)F)c2)cc1-c1cnc2sc(N)nc2c1
[II] CC(=O)Nc1nc2cc(-c3cc(NC(=O)c4ccc(CN5CCN(C)CC5)c(C(F)(F)F)c4)ccc3C)cnc2s1
Req: Given I and given II , which shows the smaller recorded IC50? Output the label that corresponds to your choice.
Resp: II
(II: 100 nM, I: 3230 nM)

---

Biological target: c-KIT V560G/D816V (Homo sapiens, UniProt P10721, D816V/V560G)
Construct: purchased Promega VA7063
Sequence (P10721 26-976 V560G/D816V): as the sequence (P10721 26-976) above, with V535G, D791V counted along it
Experiment: ADP-Glo kinase assay on c-KIT V560G/D816V
Assay type: biochemical
Settings: ADP-Glo kinase assay, 10 μM ATP
Experimental: Biochemical kinase assays on c-KIT protein kinase were performed at Reaction Biology Corp. (San Diego, CA, USA). […] The kinase assay followed the manufacturer’s instruction. IC50 values were calculated by GraphPad prism 8.0 software (GraphPad Software, San Diego, CA, USA).
parameter-measured: IC50 (µM)

[[record]]
given_smiles = "Cc1ccc(NC(=O)c2ccc(CN3CCN(C)CC3)c(C(F)(F)F)c2)cc1-c1cnc2sc(N)nc2c1"
assayed_system = "c-KIT V560G/D816V (Homo sapiens, UniProt P10721, D816V/V560G)"
parameter_measured = "IC50"
obs_value = 4.77


[a] CC(=O)Nc1nc2cc(-c3cc(NC(=O)c4ccc(CN5CCN(C)CC5)c(C(F)(F)F)c4)ccc3C)cnc2s1
[b] Cc1ccc(NC(=O)c2ccc(CN3CCNCC3)c(C(F)(F)F)c2)cc1-c1cnc2sc(N)nc2c1
Req: Given a and given b , which shows the smaller recorded IC50? Output the label that corresponds to your choice.
Resp: a
(a: 5.07 µM, b: 7.67 µM)

---

Tested on: parental Ba/F3 cells
Assay: Anti-proliferative activity on Ba/F3 cells
Assay type: cell-based
Conditions: Mus musculus, BaF3
parameter-measured: GI50 (µM)
Enter your answer as a number in µM; do not include the unit.

[[record]]
compound = "Cc1ccc(NC(=O)c2ccc(CN3CCNCC3)c(C(F)(F)F)c2)cc1-c1cnc2sc(N)nc2c1"
assayed_system = "parental Ba/F3 cells"
obs_value = 10.5

[[record]]
compound = "Cc1ccc(NC(=O)c2ccc(CN3CCN(C)CC3)c(C(F)(F)F)c2)cc1-c1cnc2sc(N)nc2c1"
assayed_system = "parental Ba/F3 cells"
obs_value = 8.06


Req: Request - read-out GI50 | tested on parental Ba/F3 cells | compound CCN(CC)CCNC(=O)c1c(C)[nH]c(/C=C2\C(=O)Nc3ccc(F)cc32)c1C [sunitinib, reference compound]
Resp: 2.72

Req: Request - read-out GI50 | tested on parental Ba/F3 cells | compound CC(=O)Nc1nc2cc(-c3cc(NC(=O)c4ccc(CN5CCN(C)CC5)c(C(F)(F)F)c4)ccc3C)cnc2s1
Resp: 10.5

Req: Request - read-out GI50 | tested on parental Ba/F3 cells | compound Cc1ccc(NC(=O)c2ccc(CN3CCN(C)CC3)cc2)cc1Nc1nccc(-c2cccnc2)n1 [imatinib, reference compound]
Resp: 17

---

Test system: c-KIT D816V Ba/F3 cells
Assay: Anti-proliferative activity on Ba/F3 cells
Assay type: cell-based
Details: Mus musculus, BaF3
parameter-measured: GI50 (µM)

[a] CCN(CC)CCNC(=O)c1c(C)[nH]c(/C=C2\C(=O)Nc3ccc(F)cc32)c1C [sunitinib, reference compound]
[b] Cc1ccc(NC(=O)c2ccc(CN3CCNCC3)c(C(F)(F)F)c2)cc1-c1cnc2sc(N)nc2c1 [6s]
[c] Cc1ccc(NC(=O)c2ccc(CN3CCN(C)CC3)cc2)cc1Nc1nccc(-c2cccnc2)n1 [imatinib, reference compound]
Req: # rank_down: sort by GI50, max first # list labels per requested ordering
Resp: c, b, a

---

System: HMC1.2 cells
Assay: Cell viability assay (CellTiter-Glo)
Assay type: cell-based, human
Conditions: 72 h; inactive = less than 50% inhibition at a concentration of 50 μM
parameter-measured: GI50 HMC1.2

As a guide, the following entries are already answered.
[[record]]
given_smiles = "Cc1cncc(C(=O)Nc2ccc(C)c(-c3cnc4sc(N)nc4c3)c2)c1"
obs_value = "inactive ^b"

[[record]]
given_smiles = "Cc1ccc(NC(=O)c2cscn2)cc1-c1cnc2sc(N)nc2c1"
obs_value = "Inactive ^b"

[[record]]
given_smiles = "Cc1cc(C(=O)Nc2ccc(C)c(-c3cnc4sc(N)nc4c3)c2)no1"
obs_value = "Inactive ^b"

[[record]]
given_smiles = "Cc1ccc(NC(=O)c2ccc(N3CCOCC3)c(C(F)(F)F)c2)cc1-c1cnc2sc(NC(=O)C3CCCCC3)nc2c1"
obs_value = "inactive ^b"


Shift focus to the following entry.
Req: # GI50 HMC1.2 lookup, item Cc1ccc(NC(=O)c2csc(-c3ccncc3)n2)cc1-c1cnc2sc(N)nc2c1
Resp: Inactive ^b

---

Each entry below carries its measured GI50, system: HMC1.2 cells.
Enter your answer as a number in µM; do not include the unit.

As a guide, the following entries are already answered.
[[record]]
compound = "Cc1ccc(NC(=O)c2ccc(CN(C)CCN(C)C)c(C(F)(F)F)c2)cc1-c1cnc2sc(N)nc2c1"
parameter_measured = "GI50"
obs_value = 4.99

[[record]]
compound = "CC(=O)Nc1nc2cc(-c3cc(NC(=O)c4ccc(CN(C)CCN(C)C)c(C(F)(F)F)c4)ccc3C)cnc2s1"
parameter_measured = "GI50"
obs_value = 4.98


Req: Request - read-out GI50 | tested on HMC1.2 cells | compound Cc1ccc(NC(=O)c2cc(N3CCN(C)CC3)cc(C(F)(F)F)c2)cc1-c1cnc2sc(N)nc2c1
Resp: 2.36

Req: Request - read-out GI50 | tested on HMC1.2 cells | compound Cc1ccc(NC(=O)c2ccc(CN3CCN(C)CC3)c(C(F)(F)F)c2)cc1-c1cnc2sc(NC(=O)c3ccccc3)nc2c1
Resp: 5.22

Req: Request - read-out GI50 | tested on HMC1.2 cells | compound Cc1ccc(NC(=O)c2ccc(CN3CCOCC3)c(C(F)(F)F)c2)cc1-c1cnc2sc(N)nc2c1
Resp: 8.55

Req: Request - read-out GI50 | tested on HMC1.2 cells | compound Cc1ccc(NC(=O)c2cccc(S(C)(=O)=O)c2)cc1-c1cnc2sc(N)nc2c1
Resp: 36.8

Req: Request - read-out GI50 | tested on HMC1.2 cells | compound Cc1ccc(NC(=O)c2ccc(CN3CCN(C)CC3)cc2)cc1Nc1nccc(-c2cccnc2)n1 [imatinib, reference compound]
Resp: 27.1

Req: Request - read-out GI50 | tested on HMC1.2 cells | compound Cc1ccc(NC(=O)c2ccccc2)cc1-c1cnc2sc(N)nc2c1
Resp: 25.2

---

Each entry below carries its measured GI50, system: HMC1.2 cells.
Enter your answer as a number in µM; do not include the unit.

[[record]]
compound = "Cc1ccc(NC(=O)c2ccc(CN3CCN(C)CC3)c(C(F)(F)F)c2)cc1-c1cnc2sc(N)nc2c1"
obs_value = 1.15


Req: Request - read-out GI50 | tested on HMC1.2 cells | compound CC(=O)Nc1nc2cc(-c3cc(NC(=O)c4ccc(CN5CCOCC5)c(C(F)(F)F)c4)ccc3C)cnc2s1
Resp: 28.4

Req: Request - read-out GI50 | tested on HMC1.2 cells | compound CC(=O)N1CCN(Cc2ccc(C(=O)Nc3ccc(C)c(-c4cnc5sc(N)nc5c4)c3)cc2C(F)(F)F)CC1
Resp: 11.3

Req: Request - read-out GI50 | tested on HMC1.2 cells | compound CC(=O)Nc1nc2cc(-c3cc(NC(=O)c4ccc(CN5CCN(C)CC5)c(C(F)(F)F)c4)ccc3C)cnc2s1
Resp: 1.52
